Values were extracted from PubChem BioAssay AID1508600.

- assay_method_text: Components of the Cytosolic LPS Sensing Pathway: Gene Identification via Genome-wide siRNA Screen
- condition_label: RAW264.7 macrophages, IL-1a HTRF, actives lie on both sides, screened at 100 nM (by protocol), cells primed 5 h with Pam3CSK4 first
The whole screen tested about 53,000 sequences, of which about 3,700 (7%) were called active. Many of the other results were omitted from the sample, so actives are more common in it than they were.
Decision: z-score compared against 0.7; not below it gives fulfilled, below it gives not fulfilled.

// below: answered sequences
sequence: CGGCUAAGGAAAAAUGUGATT against Nr1h4
label_class: not fulfilled

sequence: GUUGCCAGAUUUGGAUAUUTT against Abcg5
label_class: not fulfilled

sequence: GGGCAGAUGUAAUUCUUGUTT against Ctsm
label_class: fulfilled

Query: Item GGAAGCAAUGAUCAAUUAUTT against Ppp2r3c with z-score of 0.7 or above?
Response: fulfilled

Query: Identify whether the reported z-score of the following sequence is 0.7 or greater: GCUUAUAAAGUAGUGGUUUTT against Wnt2b
Response: not fulfilled

Query: Decide: z-score of GGUAUAAAGAACUCUGUCATT against Cep78 >= 0.7?
Response: not fulfilled
